All values here come from ChEMBL document CHEMBL3616471.

Below, each entry is listed alongside its reported pIC50.
# Test system: PC-3
# PROTOCOL SUMMARY: Cytotoxicity against human PC3 cells after 72 hrs by MTT assay
# Type: functional, cell-based
# TEST CONTEXT: PC-3, 72 h
pIC50: −log10 of the molar value.
READOUT TYPE: pIC50

| MOL SMILES | EXPERIMENTAL RESULT |
| --- | --- |
| C=C(C)[C@@H]1CC[C@]2(COC(=O)c3ccccc3C)CC[C@]3(C)[C@H](CC[C@@H]4[C@@]5(C)CC[C@H](O)C(C)(C)[C@@H]5CC[C@]43C)[C@@H]12 | < 4.00 |
| C=C(C)[C@@H]1CC[C@]2(COC(=O)c3ccccc3)CC[C@]3(C)[C@H](CC[C@@H]4[C@@]5(C)CC[C@H](OC(=O)c6ccccc6)C(C)(C)[C@@H]5CC[C@]43C)[C@@H]12 | < 4.00 |
| C=C(C)[C@@H]1CC[C@]2(COC(=O)c3ccc(F)cc3)CC[C@]3(C)[C@H](CC[C@@H]4[C@@]5(C)CC[C@H](O)C(C)(C)[C@@H]5CC[C@]43C)[C@@H]12 | < 4.00 |
